# Tested target: human orexin-1 (hOX1) receptors (Homo sapiens, UniProt O43613)
# Construct: expressed in transfected cells
# Sequence (O43613 whole entry): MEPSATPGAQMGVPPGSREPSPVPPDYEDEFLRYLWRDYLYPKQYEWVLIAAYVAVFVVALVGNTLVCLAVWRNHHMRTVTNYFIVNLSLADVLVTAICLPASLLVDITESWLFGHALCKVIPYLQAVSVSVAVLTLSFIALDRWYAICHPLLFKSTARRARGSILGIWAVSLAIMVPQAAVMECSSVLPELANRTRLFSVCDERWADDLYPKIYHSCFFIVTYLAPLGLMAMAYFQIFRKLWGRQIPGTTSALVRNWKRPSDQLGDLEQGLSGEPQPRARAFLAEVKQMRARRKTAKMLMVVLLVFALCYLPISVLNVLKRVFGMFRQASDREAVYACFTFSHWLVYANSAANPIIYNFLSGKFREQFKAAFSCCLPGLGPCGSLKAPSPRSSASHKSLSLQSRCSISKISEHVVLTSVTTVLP
# Procedure text: Intracellular Ca2+ mobilization assay (FLIPR), CHO(dHFr-) cells expressing hOX1
# Assay type: cell-based
# Conditions used: antagonism of orexin-A at EC80; Kb=IC50/(1+[A]/EC50); CHO(dHFr-)-OX1R cells
Readout type: Kb (µM)

Past entries and their recorded results:
CNC(=O)C(c1ccccc1)N1CCc2sc(C)c(C)c2C1CCc1ccc(OC)cc1 (single isomer, unassigned) [Example 13]: 0.0402
CNC(=O)C(c1ccccc1)N1CCc2sc(C)cc2C1CCc1ccc(OC)cc1 (single isomer, unassigned) [Example 9]: 0.408
CNC(=O)C(c1ccccc1)N1CCc2sc(C)cc2C1CCc1ccc(C(F)(F)F)cc1 (single isomer, unassigned) [Example 6]: 0.0401
CNC(=O)C(c1ccccc1)N1CCc2sc(C)cc2C1CCc1ccc(OC)cc1 (single isomer, unassigned) [Example 8]: 0.0135
CNC(=O)C(c1ccccc1)N1CCc2sc(C)c(C)c2C1CCc1ccc(OC)cc1 (single isomer, unassigned) [Example 15]: 0.408

(a) CNC(=O)C(c1ccccc1)N1CCc2sc(C)cc2C1CCc1ccc(C(F)(F)F)cc1 (single isomer, unassigned) [Example 4]
(b) CNC(=O)C(c1ccccc1)N1CCc2sc(Cl)cc2C1CCc1ccc(OC)cc1 (single isomer, unassigned) [Example 17]
Q) Out of a and b , name the one with the higher Kb. Returns: label corresponding to the selected item.
A) a
(a: 0.047 µM, b: 0.0162 µM)

(I) CNC(=O)C(c1ccccc1)N1CCc2ccsc2C1CCc1ccc(C(F)(F)F)cc1 (single isomer, unassigned) [Example 16]
(II) CNC(=O)C(c1ccccc1)N1CCc2ncccc2C1CCc1ccc(OC)cc1 (single isomer, unassigned) [Example 22]
(III) CNC(=O)C(c1ccccc1)N1CCc2ncccc2C1CCc1ccc(OC)cc1 (single isomer, unassigned) [Example 11]
Q) Give the ascending ranking of the items by reported Kb. I would appreciate it if you listed the labels in the requested order.
A) I, II, III

====

# Tested target: human orexin-2 (hOX2) receptors (Homo sapiens)
# Construct: expressed in transfected cells
# Sequence (O43614 whole entry): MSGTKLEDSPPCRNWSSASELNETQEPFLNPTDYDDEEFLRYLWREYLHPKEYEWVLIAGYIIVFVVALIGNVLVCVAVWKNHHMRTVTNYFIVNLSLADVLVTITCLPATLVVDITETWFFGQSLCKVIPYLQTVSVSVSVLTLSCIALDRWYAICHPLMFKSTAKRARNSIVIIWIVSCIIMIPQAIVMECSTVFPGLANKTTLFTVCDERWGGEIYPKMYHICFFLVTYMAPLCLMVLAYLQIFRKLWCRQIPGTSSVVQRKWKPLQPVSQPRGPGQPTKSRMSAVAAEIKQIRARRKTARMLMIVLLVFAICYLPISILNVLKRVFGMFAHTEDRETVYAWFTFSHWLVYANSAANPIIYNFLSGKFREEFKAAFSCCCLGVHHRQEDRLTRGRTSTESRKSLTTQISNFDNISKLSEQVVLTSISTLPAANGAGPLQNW
# Procedure text: Intracellular Ca2+ mobilization assay (FLIPR), CHO(dHFr-) cells expressing hOX2
# Format: cell-based
# Conditions used: antagonism of orexin-A at EC80; Kb=IC50/(1+[A]/EC50); CHO(dHFr-)-OX2R cells
Readout type: Kb (µM)

CNC(=O)C(c1ccccc1)N1CCc2sc(C)cc2C1CCc1ccc(OC)cc1 (single isomer, unassigned) [Example 7]: 0.0266
CNC(=O)C(c1ccccc1)N1CCc2ncccc2C1CCc1ccc(C(F)(F)F)cc1 (single isomer, unassigned) [Example 26]: 0.0356
CNC(=O)C(c1ccccc1)N1CCc2sc(Cl)cc2C1CCc1ccc(OC)cc1 (single isomer, unassigned) [Example 17]: 0.0462
CNC(=O)C(c1ccccc1)N1CCc2sc(C)c(C)c2C1CCc1ccc(OC)cc1 (single isomer, unassigned) [Example 13]: 0.005
CNC(=O)C(c1ccccc1)N1CCc2sc(C)c(C)c2C1CCc1ccc(OC)cc1 (single isomer, unassigned) [Example 15]: 0.0169
CNC(=O)C(c1ccccc1)N1CCc2ncccc2C1CCc1cccc(OC)c1 (single isomer, unassigned) [Example 25]: 0.0296
CNC(=O)C(c1ccccc1)N1CCc2ncccc2C1CCc1ccc(OC)cc1 (single isomer, unassigned) [Example 22]: 0.038
CNC(=O)C(c1ccccc1)N1CCc2ncccc2C1CCc1cccc(OC)c1 (single isomer, unassigned) [Example 23]: 0.0852

(P) CNC(=O)C(c1ccccc1)N1CCc2sc(C)c(C)c2C1CCc1ccc(OC)cc1 (single isomer, unassigned) [Example 14]
(Q) CNC(=O)C(c1ccccc1)N1CCc2sc(C)cc2C1CCc1ccc(C(F)(F)F)cc1 (single isomer, unassigned) [Example 6]
Q) Out of P and Q , name the one with the higher Kb. Returns: label corresponding to the selected item.
A) Q
(Q: 0.0091 µM, P: 0.0036 µM)
